// provenance: the NIST ThermoML archive (doi:10.1021/acs.jced.9b00134)

Assay: xn = mol fraction of the nth substance listed
Conditions: 323 K; 101.13 kPa; Liquid; Concentric cylinders viscometry; x1 = 0.5
Measured viscosity, listed per entry for reference.
Your answer should be a plain number; it is taken to be in mPa·s.

Completed entries (count: 3):
C[N+](C)(C)Cc1ccccc1.[Cl-] [trimethylbenzylammonium chloride] + OCC(O)CO ... 18.3
C[N+](C)(C)Cc1ccccc1.[Cl-] [trimethylbenzylammonium chloride] + OCCO ... 14.2
C[N+](C)(C)Cc1ccccc1.[Cl-] [trimethylbenzylammonium chloride] + CCC(O)CO ... 17.9

Here is the next item to consider.
Qu. What value of viscosity has been reported for the following compound? C[N+](C)(C)Cc1ccccc1.[Cl-] [trimethylbenzylammonium chloride] + OCCCCCCO
Ans. 16.8

* * *

Assay: refractive index (Na D-line) (dimensionless); xn = mol fraction of the nth substance listed
Conditions: 323 K; 101.13 kPa; Liquid; Standard Abbe refractometry; x1 = 0.5
reported-property: refractive index
Provide a numeric answer; units are not to be included.

Completed entries (count: 3):
C[N+](C)(C)Cc1ccccc1.[Cl-] [trimethylbenzylammonium chloride] + OCC(O)CO ... 1.5493
C[N+](C)(C)Cc1ccccc1.[Cl-] [trimethylbenzylammonium chloride] + CCC(O)CO ... 1.4781
C[N+](C)(C)Cc1ccccc1.[Cl-] [trimethylbenzylammonium chloride] + OCCCCCCO ... 1.4963

Here is the next item to consider.
Qu. What value of refractive index has been reported for the following molecule? C[N+](C)(C)Cc1ccccc1.[Cl-] [trimethylbenzylammonium chloride] + OCCO
Ans. 1.4587

* * *

Assay: xn = mol fraction of the nth substance listed
Details: 313 K; 101.13 kPa; Liquid; Alternating current cell with electrodes; x1 = 0.5
reported-property: electrical conductivity (S/m)
Your answer should be a plain number; it is taken to be in S/m.

Completed entries (count: 3):
C[N+](C)(C)Cc1ccccc1.[Cl-] [trimethylbenzylammonium chloride] + CCC(O)CO ... 0.437
C[N+](C)(C)Cc1ccccc1.[Cl-] [trimethylbenzylammonium chloride] + OCCCCCCO ... 0.184
C[N+](C)(C)Cc1ccccc1.[Cl-] [trimethylbenzylammonium chloride] + OCC(O)CO ... 0.126

Qu. What value of electrical conductivity has been reported for the following compound? C[N+](C)(C)Cc1ccccc1.[Cl-] [trimethylbenzylammonium chloride] + OCCO
Ans. 0.902
